- protocol: Cytotoxicity against human H1299 cells after 72 hrs by WST1 assay
- Format: functional, cell-based
- stated_conditions: NCI-H1299, 72 h
assay_readout: IC50 (nM)

given_smiles	display_unit	test_result
Cc1ccc(NC(=O)Oc2ccc(N(CCCl)CCCl)cc2)cc1Nc1c2ccccc2nc2c(C)cccc12	nM	623
Cc1cccc2c(Nc3cc(CO)cc(NC(=O)Oc4ccc(N(CCCl)CCCl)cc4)c3)c3ccccc3nc12	nM	457
CCOC(=O)Nc1cc(COC(=O)Oc2ccc(N(CCCl)CCCl)cc2)cc(Nc2c3ccccc3nc3ccccc23)c1	nM	527
O=C(Nc1cc(CO)cc(Nc2c3ccccc3nc3ccccc23)c1)Oc1ccc(N(CCCl)CCCl)cc1	nM	284
